Assay: Distribution coefficient, log D at pH 7.4 after 4 hrs by shake flask method
Format: physicochemical
Conditions: octanol/water
Form field: logD at 4 h (one value per entry).
measurementLabel: logD at 4 h

compound | measurementLabel | resultValue
COC1=C(O)C(=O)O[C@@H]1[C@@H](O)CO | logD at 4 h | -1.61
O=C1OC(C(O)CO)C(OCCCOc2no[n+]([O-])c2-c2ccccc2)=C1O (centres undefined) | logD at 4 h | 1.13
O=C1OC(C(O)CO)C(OCCCCC(CO[N+](=O)[O-])O[N+](=O)[O-])=C1O (centres undefined) | logD at 4 h | 0.66
O=C1OC(C(O)CO)C(O)=C1OCCCCCCO[N+](=O)[O-] (centres undefined) | logD at 4 h | -1.93

----------
Assay: Distribution coefficient, log D at pH 1.0 after 4 hrs by shake flask method
Format: physicochemical
Conditions: octanol/water
Form field: logD at 4 h (one value per entry).
measurementLabel: logD at 4 h

molecule | resultValue
NC(=O)c1c(COC2=C(O)C(=O)OC2C(O)CO)no[n+]1[O-] (configuration not stated) | -0.99
O=C1OC(C(O)CO)C(OCCCCCCO[N+](=O)[O-])=C1O (configuration not stated) | 0.86
O=C1OC(C(O)CO)C(OCCCCC(CO[N+](=O)[O-])O[N+](=O)[O-])=C1O (configuration not stated) | 0.78
O=C1OC(C(O)CO)C(OCCCOc2no[n+]([O-])c2-c2ccccc2)=C1O (configuration not stated) | 1.53
O=C1OC(C(O)CO)C(O)=C1OCCCO[N+](=O)[O-] (configuration not stated) | -0.26
O=C1OC(C(O)CO)C(O)=C1OCCCCCCO[N+](=O)[O-] (configuration not stated) | 0.84
O=C1O[C@H]([C@@H](O)CO)C(O)=C1O | -1.65
O=C1OC(C(O)CO)C(OCCCOc2no[n+]([O-])c2S(=O)(=O)c2ccccc2)=C1O (configuration not stated) | 1.18
COC1=C(O)C(=O)O[C@@H]1[C@@H](O)CO | -1.41
O=C1OC(C(O)CO)C(OCCCO[N+](=O)[O-])=C1O (configuration not stated) | -0.48
COC1=C(O)[C@@H]([C@@H](O)CO)OC1=O | -1.44
O=C1OC(C(O)CO)C(O)=C1OCCCOc1no[n+]([O-])c1-c1ccccc1 (configuration not stated) | 1.71

----------
Assay: Distribution coefficient, log D at pH 7.4 after 4 hrs
Assay type: physicochemical
Conditions: octanol/water
measurementLabel: logD at 4 h

molecule | measurementLabel | resultValue
COC1=C(O)[C@@H]([C@@H](O)CO)OC1=O | logD at 4 h | < -2
O=C1OC(C(O)CO)C(O)=C1OCCCO[N+](=O)[O-] (configuration not stated) | logD at 4 h | < -2

----------
Experiment: Distribution coefficient, log D at pH 7.4 after 4 hrs by shake flask method
Assay type: physicochemical
Settings: octanol/water
Binary call on logD at 4 h with cut-off -1: strictly below means yes (1), and equality or higher means no (0).

compound | assignedClass
O=C1OC(C(O)CO)C(OCCCO[N+](=O)[O-])=C1O (stereo not given) | no (0)
NC(=O)c1c(COC2=C(O)C(=O)OC2C(O)CO)no[n+]1[O-] (stereo not given) | yes (1)
O=C1OC(C(O)CO)C(O)=C1OCCCOc1no[n+]([O-])c1-c1ccccc1 (stereo not given) | yes (1)
O=C1OC(C(O)CO)C(OCCCOc2no[n+]([O-])c2S(=O)(=O)c2ccccc2)=C1O (stereo not given) | no (0)
O=C1OC(C(O)CO)C(OCCCCCCO[N+](=O)[O-])=C1O (stereo not given) | no (0)
